# TARGET: Signal transducer and activator of transcription 3 (Homo sapiens)
# Sequence (P40763 whole entry): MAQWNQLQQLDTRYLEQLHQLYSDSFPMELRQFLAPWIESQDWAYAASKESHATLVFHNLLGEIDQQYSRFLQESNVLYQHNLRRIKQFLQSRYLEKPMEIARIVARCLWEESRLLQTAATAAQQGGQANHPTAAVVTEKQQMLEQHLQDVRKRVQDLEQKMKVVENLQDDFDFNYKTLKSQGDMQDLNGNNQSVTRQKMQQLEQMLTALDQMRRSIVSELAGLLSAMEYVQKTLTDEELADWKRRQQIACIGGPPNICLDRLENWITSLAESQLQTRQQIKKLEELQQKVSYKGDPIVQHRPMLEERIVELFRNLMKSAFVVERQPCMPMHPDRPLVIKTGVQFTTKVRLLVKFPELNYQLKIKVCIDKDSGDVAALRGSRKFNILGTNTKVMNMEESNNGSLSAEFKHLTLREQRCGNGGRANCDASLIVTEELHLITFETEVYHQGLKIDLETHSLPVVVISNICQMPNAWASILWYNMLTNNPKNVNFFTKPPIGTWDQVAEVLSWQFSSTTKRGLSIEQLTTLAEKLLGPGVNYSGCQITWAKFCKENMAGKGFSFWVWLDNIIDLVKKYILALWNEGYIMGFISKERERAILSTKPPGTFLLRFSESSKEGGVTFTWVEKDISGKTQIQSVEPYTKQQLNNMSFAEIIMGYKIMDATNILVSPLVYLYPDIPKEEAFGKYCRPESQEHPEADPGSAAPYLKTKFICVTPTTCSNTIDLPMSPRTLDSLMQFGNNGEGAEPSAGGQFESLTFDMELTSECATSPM
# METHOD: Displacement of fluorescent peptide 5-FAM-G(pTyr)LPQTV-CONH2 from GST-tagged full-length human STAT3 preincubated for 60 mins followed by fluorescent peptide addition measured after 30 mins by fluorescence polarization assay
Active and inactive are the calls of the source. No cut-off for these calls is given here.
Returns: one label drawn from active, inactive

In this assay, the call recorded for COc1cc(CNc2nn[nH]n2)cc(Cl)c1OCc1ccc(C)cc1 was what?
active

Can you look up the reported call for COc1cc(C=O)cc(Cl)c1OCc1ccc(C)cc1 for me?
active

Hello, I am checking results. What call was entered for COc1cc(CNC#N)cc(Cl)c1OCc1ccc([N+](=O)[O-])cc1 ?
active

Tell me the assay call for COc1cc(NC#N)cc(Cl)c1OCc1ccc(C)cc1 please.
inactive

Identify the outcome logged in this assay for the molecule shown: COc1cc(C=O)cc(Cl)c1OCc1ccc([N+](=O)[O-])cc1
active

Short answer needed: outcome of this test for COc1cc(CNc2nn[nH]n2)cc(Cl)c1OCc1cccc([N+](=O)[O-])c1 ?
active

Give the logged outcome of this assay for the following molecule: COc1cc(CNc2nn[nH]n2)cc(Cl)c1OCc1ccc([N+](=O)[O-])cc1
active
